- systemUnderTest: CDK2 (Homo sapiens, UniProt P24941)
- Construct: host or cells: HEK293
- assayRemarks: CDK2 HIBIT PQ (protein quantification), degradation
- Format: cell-based
- condition: Max = Maximum
Threshold rule: CDK2 HIBIT PQ Max (%) greater than or equal to 90% is True; below that, False.

>>> classname("CC(C)Oc1c(-c2cn[nH]c2)ncn2nc(Nc3ccc(S(=O)(=O)c4cccc(C[C@H]5C[C@@H](c6ccc7c(c6)CN([C@H]6CCC(=O)NC6=O)C7=O)C5)c4)cc3F)nc12 (stereo in doubt)")
"False"
>>> classname("CC(C)Oc1c(-c2cn[nH]c2)ncn2nc(Nc3ccc(S(=O)(=O)N(C)CCCN4CCC(c5ccc6c(N7CCC(=O)NC7=O)nn(C)c6c5)CC4)cc3F)nc12")
"True"
>>> classname("CC(C)Oc1c(-c2cn[nH]c2)ncn2nc(Nc3ccc(S(=O)(=O)c4cccc(CN5CC6CC5CN6c5ccc6c(N7CCC(=O)NC7=O)nn(C)c6c5)c4)cc3F)nc12 (centres unmarked)")
"False"

Prompt: Tell me whether CDK2 HIBIT PQ Max (%) is at least 90% here: CC(C)Oc1c(-c2cn[nH]c2)ncn2nc(NC3CCN(S(=O)(=O)c4cccc(CN5CC6(C5)CN(c5ccc7c(c5)CN(C5CCC(=O)NC5=O)C7=O)C6)c4)CC3)nc12 (racemic)
Completion: False
